experiment: Pharmacokinetics in female BALB/c nude mice bearing A375 xenografts, 1 day dosing (PK and PD study): plasma, tumor and brain concentrations, AUC; assay type: in vivo; details: mouse, plasma, po, 3 mg/kg, 3 mg/kg p.o. BID × 1 day; post 1st dose; 2 h; read-out: Mean Concentration in Plasma ± SEM
PARAMETER: concentration at 2 h

- COMPOUND: "CCN(C)S(=O)(=O)Nc1ccc(F)c(Oc2ccc3ncn([C@H]4COC5(CCN(C6CC7(C6)CN(c6cc8c(cc6F)c(N6CCC(=O)NC6=O)nn8C)C7)CC5)C4)c(=O)c3c2)c1C#N [Compound 26]"
  RESULT: "6910 ng/mL"

---

assay: Pharmacokinetics in female BALB/c nude mice bearing A375 xenografts, 1 day dosing (PK and PD study): plasma, tumor and brain concentrations, AUC; type: in vivo; conditions: mouse, plasma, po, 3 mg/kg, 3 mg/kg p.o. QD × 1 day; 1 h; read-out: Mean Concentration in Plasma ± SEM
PARAMETER: concentration at 1 h

- COMPOUND: "CCN(C)S(=O)(=O)Nc1ccc(F)c(Oc2ccc3ncn(C4CC5(CCN(C6CC7(C6)CN(c6cc8c(cc6F)c(N6CCC(=O)NC6=O)nn8C)C7)CC5)C4)c(=O)c3c2)c1C#N (stereo not shown)"
  PARAMETER: "concentration at 1 h"
  RESULT: "2830 ng/mL"

---

test: Pharmacokinetics in female BALB/c nude mice bearing A375 xenografts, 1 day dosing (PK and PD study): plasma, tumor and brain concentrations, AUC; assay type: in vivo; settings: mouse, tumor, po, 5 mg/kg, 5 mg/kg p.o. BID × 1 day; post 2nd dose; 1 h; read-out: Mean Concentration in Tumor ± SEM

- COMPOUND: "CCN(C)S(=O)(=O)Nc1ccc(F)c(Oc2ccc3ncn(C4CC5(CCN(C6CC7(C6)CN(c6cc8c(cc6F)c(N6CCC(=O)NC6=O)nn8C)C7)CC5)C4)c(=O)c3c2)c1C#N (stereo not shown)"
  concentration at 1 h / ng/g: 626

---

test: Pharmacokinetics in female BALB/c nude mice bearing A375 xenografts, 1 day dosing (PK and PD study): plasma, tumor and brain concentrations, AUC; format: in vivo; conditions: mouse, plasma, po, 1 mg/kg, 1 mg/kg p.o. TID × 1 day; post 3rd dose; 0.25 h; read-out: Mean Concentration in Plasma ± SEM

- COMPOUND: "CCN(C)S(=O)(=O)Nc1ccc(F)c(Oc2ccc3ncn(C4CC5(CCN(C6CC7(C6)CN(c6cc8c(cc6F)c(N6CCC(=O)NC6=O)nn8C)C7)CC5)C4)c(=O)c3c2)c1C#N (stereo not shown)"
  UNITS_SYMBOL: "µg/mL"
  concentration at 0.25 h: 0.346

---

experiment: Example 6 pharmacokinetics assay for PKPD study (plasma, tumor, liver); assay type: in vivo, BALB/c nude mice; details: mouse, plasma, po; 100 mg/kg, single dose; 24 h; read-out: Concentration in Plasma (mean ± SEM)

- MOLECULE: "CC(C)(C)c1nc(-c2cccc(NS(=O)(=O)c3c(F)cccc3F)c2F)c(-c2ccnc(N)n2)s1 [Dabrafenib, dabrafenib, reference compound]"
  concentration at 24 h / ng/mL: 0.725

---

assay: Pharmacokinetics in female BALB/c nude mice bearing A375 xenografts, 1 day dosing (PK and PD study): plasma, tumor and brain concentrations, AUC; assay type: in vivo; conditions: mouse, plasma, po, 5 mg/kg, 5 mg/kg p.o. BID × 1 day; post 1st dose; 0.25 h; read-out: Mean Concentration in Plasma ± SEM

- COMPOUND: "CCN(C)S(=O)(=O)Nc1ccc(F)c(Oc2ccc3ncn(C4CC5(CCN(C6CC7(C6)CN(c6cc8c(cc6F)c(N6CCC(=O)NC6=O)nn8C)C7)CC5)C4)c(=O)c3c2)c1C#N (stereo not shown) [Compound 141]"
  concentration at 0.25 h / ng/mL: 1810

---

assay: Pharmacokinetics in female BALB/c nude mice bearing A375 xenografts, 1 day dosing (PK and PD study): plasma, tumor and brain concentrations, AUC; assay type: in vivo; settings: mouse, plasma, po, 2 mg/kg, 2 mg/kg p.o. TID × 1 day; post 3rd dose; 4 h; read-out: Mean Concentration in Plasma ± SEM

- MOLECULE: "CCN(C)S(=O)(=O)Nc1ccc(F)c(Oc2ccc3ncn([C@H]4COC5(CCN(C6CC7(C6)CN(c6cc8c(cc6F)c(N6CCC(=O)NC6=O)nn8C)C7)CC5)C4)c(=O)c3c2)c1C#N [Compound 26]"
  concentration at 4 h [ng/mL]: 1770

---

Test system: A375-NRAS^Q61K cells
Assay: CTGlo Cell Viability Assay, A375-NRAS^Q61K (A375.11) cells, 96 hours
Format: cell-based, human
Conditions: Homo sapiens, 96 h, A375.11 (A375-NRAS^Q61K) cells
Procedure: Compounds of this invention were tested for their effect on the viability of A375-NRAS^Q61K cells by quantification of ATP using the CellTiter-Glo® 2.0 Cell Viability Assay (Catalog No. G9243, Promega, Madison, WI, USA). This assay produces a luminescent signal in the presence of ATP, which is indicative of metabolically active cells, making the luminescence readout proportional to the number of viable cells. […]

- COMPOUND: "CCN(C)S(=O)(=O)Nc1ccc(F)c(Oc2ccc3ncn([C@H]4COC5(CCN(C6CC7(C6)CN(c6ccc(NC8CCC(=O)NC8=O)cc6F)C7)CC5)C4)c(=O)c3c2)c1C#N (some centres unmarked) [Compound 35]"
  EXPERIMENTAL_TARGET: "A375-NRAS^Q61K cells"
  GI50: "1 to 10 µM"
- COMPOUND: "CCN(C)S(=O)(=O)Nc1ccc(F)c(Oc2ccc3ncn(C4CC5(CCN(CC6(O)CCN(c7cc8c(cc7F)c(N7CCC(=O)NC7=O)nn8C)CC6)CC5)C4)c(=O)c3c2)c1C#N [Compound 226]"
  EXPERIMENTAL_TARGET: "A375-NRAS^Q61K cells"
  GI50: "< 1 µM"
- COMPOUND: "CCN(C)S(=O)(=O)Nc1ccc(F)c(Oc2ccc3ncn([C@@H]4CCC5(CCN(C6CCC(c7ccc(NC8CCC(=O)NC8=O)cc7F)CC6)CC5)C4)c(=O)c3c2)c1C#N (single isomer, unassigned) [Compound 22]"
  EXPERIMENTAL_TARGET: "A375-NRAS^Q61K cells"
  GI50: "> 10 µM"
- COMPOUND: "CCN(C)S(=O)(=O)Nc1ccc(F)c(Oc2ccc3ncnc(OC4CC5(C4)CN(C4CCC(c6cc7c(cc6F)c(N6CCC(=O)NC6=O)nn7C)CC4)C5)c3c2)c1C#N (single isomer, unassigned) [Compound 232]"
  EXPERIMENTAL_TARGET: "A375-NRAS^Q61K cells"
  GI50: "> 10 µM"
- COMPOUND: "Cn1nc(N2CCC(=O)NC2=O)c2cc(F)c(N3CC4(CC(N5CCC6(CC5)CC(n5cnc7ccc(Oc8c(F)ccc(NS(=O)(=O)N9CCOCC9)c8C#N)cc7c5=O)C6)C4)C3)cc21 [Compound 262]"
  EXPERIMENTAL_TARGET: "A375-NRAS^Q61K cells"
  GI50: "< 1 µM"

---

assay: Example 9 pharmacokinetics assay for the PK and PD study Part I, II and III (plasma, tumor, liver); assay type: in vivo, BALB/c nude mice; conditions: mouse, tumor, po; 100 mg/kg, p.o., single dose; 12 h; ± SEM; read-out: Mean Concentration in Tumor
PARAMETER: concentration at 12 h (ng/g)

- COMPOUND: "CC(C)(C)c1nc(-c2cccc(NS(=O)(=O)c3c(F)cccc3F)c2F)c(-c2ccnc(N)n2)s1 [Dabrafenib, dabrafenib, reference compound]"
  PARAMETER: "concentration at 12 h"
  NUMERIC_READOUT: 54

---

assay: Pharmacokinetics in female BALB/c nude mice bearing A375 xenografts, 1 day dosing (PK and PD study): plasma, tumor and brain concentrations, AUC; format: in vivo; conditions: mouse, brain, po, 2 mg/kg, 2 mg/kg p.o. TID × 1 day; post 3rd dose; 10 h; read-out: Mean Concentration in Brain ± SEM
PARAMETER: concentration at 10 h (ng/g)

- SMILES_INPUT: "CCN(C)S(=O)(=O)Nc1ccc(F)c(Oc2ccc3ncn([C@H]4COC5(CCN(C6CC7(C6)CN(c6cc8c(cc6F)c(N6CCC(=O)NC6=O)nn8C)C7)CC5)C4)c(=O)c3c2)c1C#N"
  NUMERIC_READOUT: 23

---

Molecular target: BRAF V600E (Homo sapiens, UniProt P15056+Q96SW2, V600E)
Construct: knock-in of the HiBiT tag to the endogenous BRAF V600E locus; host or cells: A375.10 (A375 clonal line, CRISPR HiBiT knock-in at the endogenous BRAF V600E locus)
Sequence (P15056 whole entry V600E): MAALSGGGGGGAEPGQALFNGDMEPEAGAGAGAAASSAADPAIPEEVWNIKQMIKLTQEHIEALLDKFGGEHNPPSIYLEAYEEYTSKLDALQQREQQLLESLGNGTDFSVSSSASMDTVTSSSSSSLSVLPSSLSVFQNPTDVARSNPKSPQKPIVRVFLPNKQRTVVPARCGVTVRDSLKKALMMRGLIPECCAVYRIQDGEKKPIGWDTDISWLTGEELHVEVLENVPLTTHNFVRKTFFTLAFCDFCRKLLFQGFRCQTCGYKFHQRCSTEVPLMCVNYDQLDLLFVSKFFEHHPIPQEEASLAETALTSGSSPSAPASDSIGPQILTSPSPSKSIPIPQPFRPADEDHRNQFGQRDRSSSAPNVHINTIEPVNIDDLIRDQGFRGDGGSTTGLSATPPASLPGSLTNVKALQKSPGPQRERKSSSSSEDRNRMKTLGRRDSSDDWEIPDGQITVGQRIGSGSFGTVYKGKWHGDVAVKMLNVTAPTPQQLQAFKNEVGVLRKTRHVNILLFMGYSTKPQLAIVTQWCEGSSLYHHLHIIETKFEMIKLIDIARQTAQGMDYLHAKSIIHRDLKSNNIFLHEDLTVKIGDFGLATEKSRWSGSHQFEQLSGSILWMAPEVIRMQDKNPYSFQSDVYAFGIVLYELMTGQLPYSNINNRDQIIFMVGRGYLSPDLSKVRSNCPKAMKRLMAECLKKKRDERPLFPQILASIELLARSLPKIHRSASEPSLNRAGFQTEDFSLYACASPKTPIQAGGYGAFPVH
Sequence (Q96SW2 whole entry): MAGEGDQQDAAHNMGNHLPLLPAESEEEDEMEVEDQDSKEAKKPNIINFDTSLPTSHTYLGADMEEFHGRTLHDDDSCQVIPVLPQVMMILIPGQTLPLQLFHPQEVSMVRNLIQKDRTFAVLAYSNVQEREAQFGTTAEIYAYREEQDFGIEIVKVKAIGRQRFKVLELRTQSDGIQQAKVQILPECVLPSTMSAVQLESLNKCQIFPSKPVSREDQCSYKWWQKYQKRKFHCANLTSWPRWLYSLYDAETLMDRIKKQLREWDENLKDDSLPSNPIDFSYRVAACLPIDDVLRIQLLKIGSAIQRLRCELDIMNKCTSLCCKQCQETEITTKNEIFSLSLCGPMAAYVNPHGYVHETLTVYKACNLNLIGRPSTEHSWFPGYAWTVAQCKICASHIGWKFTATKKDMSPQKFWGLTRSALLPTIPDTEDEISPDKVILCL
Sequence (Q16531 whole entry partner): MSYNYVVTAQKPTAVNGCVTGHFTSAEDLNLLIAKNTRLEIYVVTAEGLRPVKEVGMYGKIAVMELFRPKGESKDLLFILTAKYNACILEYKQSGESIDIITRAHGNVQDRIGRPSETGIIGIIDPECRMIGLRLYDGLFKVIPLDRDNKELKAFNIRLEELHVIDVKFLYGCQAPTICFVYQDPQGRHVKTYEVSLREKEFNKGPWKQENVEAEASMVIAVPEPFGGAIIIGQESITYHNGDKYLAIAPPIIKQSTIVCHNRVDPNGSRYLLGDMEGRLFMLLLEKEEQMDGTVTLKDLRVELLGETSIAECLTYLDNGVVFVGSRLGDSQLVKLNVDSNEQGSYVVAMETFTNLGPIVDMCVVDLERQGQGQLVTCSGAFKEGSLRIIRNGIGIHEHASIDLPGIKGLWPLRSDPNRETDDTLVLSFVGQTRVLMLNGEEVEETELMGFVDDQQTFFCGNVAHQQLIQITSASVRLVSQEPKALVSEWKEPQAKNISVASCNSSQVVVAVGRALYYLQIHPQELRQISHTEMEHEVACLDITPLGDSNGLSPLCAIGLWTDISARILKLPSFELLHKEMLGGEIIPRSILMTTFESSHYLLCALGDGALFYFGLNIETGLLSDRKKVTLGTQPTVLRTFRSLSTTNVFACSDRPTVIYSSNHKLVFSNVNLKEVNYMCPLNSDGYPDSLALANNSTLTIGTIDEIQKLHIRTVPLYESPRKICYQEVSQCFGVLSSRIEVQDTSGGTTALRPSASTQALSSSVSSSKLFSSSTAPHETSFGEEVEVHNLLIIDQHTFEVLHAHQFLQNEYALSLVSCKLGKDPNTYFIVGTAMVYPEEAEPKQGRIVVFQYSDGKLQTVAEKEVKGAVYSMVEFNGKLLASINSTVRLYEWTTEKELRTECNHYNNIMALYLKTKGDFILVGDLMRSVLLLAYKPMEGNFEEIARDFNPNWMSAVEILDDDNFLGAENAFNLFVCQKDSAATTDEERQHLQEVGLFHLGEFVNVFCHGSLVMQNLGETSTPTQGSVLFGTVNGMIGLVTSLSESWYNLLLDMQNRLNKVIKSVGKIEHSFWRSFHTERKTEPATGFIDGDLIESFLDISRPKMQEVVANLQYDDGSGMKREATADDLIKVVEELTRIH
Assay: BRAF V600E HiBiT Degradation Assay
Type: cell-based
Details: A375.10 cells, BRAF V600E, 2 hours; inflection point; read-out: HiBiT-Degradation A375.10 BRAF 2 hours IP
Procedure: Compounds of this invention were tested for degradation of mutant BRAF V600E using the HiBiT assay, a luminescence-based assay for quantification of cellular protein levels using the Nano-Glo® HiBiT Lytic Detection System (Catalog No. N3050, Promega, Madison, WI USA). […] Data were analyzed with a 4-parameter logistic fit to generate sigmoidal dose-response curves. […]
PARAMETER: DC50

- MOLECULE: "CCN(C)S(=O)(=O)Nc1ccc(F)c(Oc2ccc3ncc(OCC4CCN(C5CCC(c6cc7c(cc6F)c(N6CCC(=O)NC6=O)nn7C)CC5)CC4)nc3c2)c1C#N (single isomer, unassigned) [Compound 118]"
  PARAMETER: "DC50"
  RESULT: "< 1 µM"
- MOLECULE: "CCN(C)S(=O)(=O)Nc1ccc(F)c(Oc2ccc3ncn(C4CC5(CCN(C6CCN(c7cc8c(cc7F)c(N7CCC(=O)NC7=O)nn8C)CC6)CC5)C4)c(=O)c3c2)c1C#N [Compound 156]"
  PARAMETER: "DC50"
  RESULT: "< 1 µM"
- MOLECULE: "CCN(C)S(=O)(=O)Nc1ccc(F)c(Oc2ccc3ncn(C4CC5(CCN(C6CCC(c7cc8c(cc7F)c(N7CCC(=O)NC7=O)nn8C)CC6F)CC5)C4)c(=O)c3c2)c1F (single isomer, unassigned) [Compound 185]"
  PARAMETER: "DC50"
  RESULT: "< 1 µM"
- MOLECULE: "CCN(C)S(=O)(=O)Nc1ccc(F)c(Oc2ccc3ncc(OCC4CCN(C5CCC(c6cc7c(cc6F)c(N6CCC(=O)NC6=O)nn7C)CC5)CC4)nc3c2)c1C#N (single isomer, unassigned) [Compound 119]"
  PARAMETER: "DC50"
  RESULT: "< 1 µM"
- MOLECULE: "CCN(C)S(=O)(=O)Nc1ccc(F)c(Oc2ccc3ncn(C4CC5(C4)CN(C4CCC(c6cc7c(cc6F)c(N6CCC(=O)NC6=O)nn7C)CC4F)C5)c(=O)c3c2)c1C#N (single isomer, unassigned) [Compound 299]"
  PARAMETER: "DC50"
  RESULT: "< 1 µM"
